- Test system: CAL-85-1
- experiment_summary: normalised viability (% of control), CellTiter-Blue; higher = more viable cells (about 100 = DMSO control)
- test_conditions: 3 nM; incubation time: 72 h

molecular_string | readout_unit | normalised viability
N#CC[C@H](C1CCCC1)n1cc(-c2ncnc3[nH]ccc23)cn1 | % | 114
C[C@]1(c2nc3c(C(N)=O)cccc3[nH]2)CCCN1 | % | 87.9
CO[C@H]1C[C@@H]2CC[C@@H](C)[C@@](O)(O2)C(=O)C(=O)N2CCCC[C@H]2C(=O)O[C@H]([C@H](C)C[C@@H]2CC[C@@H](OC(=O)C(C)(CO)CO)[C@H](OC)C2)CC(=O)[C@H](C)/C=C(\C)[C@@H](O)[C@@H](OC)C(=O)[C@H](C)C[C@H](C)/C=C/C=C/C=C/1C | % | 58.9
CN(C)C/C=C/C(=O)Nc1cc2c(Nc3ccc(F)c(Cl)c3)ncnc2cc1O[C@H]1CCOC1 | % | 83.2
COc1cc(Nc2ncc3c(n2)-c2ccc(Cl)cc2C(c2c(F)cccc2OC)=NC3)ccc1C(=O)O | % | 89

* * *

List of drug sensitivity score values.
- System: MDA-MB-453
- experiment_summary: drug sensitivity score (DSS), CellTiter-Glo (DSS (AUC-based score)); higher = stronger drug effect (viability inhibition or cytotoxicity); extreme values may be limits of the assay
- test_conditions: incubation time: 72 h

compound | drug sensitivity score
Clc1ccc(C(c2ccccc2Cl)C(Cl)Cl)cc1 (stereo not drawn) [Mitotane] | 0
C=CC[C@@H]1/C=C(\C)C[C@H](C)C[C@H](OC)[C@H]2O[C@@](O)(C(=O)C(=O)N3CCCC[C@H]3C(=O)O[C@H](/C(C)=C/[C@@H]3CC[C@@H](O)[C@H](OC)C3)[C@H](C)[C@@H](O)CC1=O)[C@H](C)C[C@@H]2OC [Tacrolimus] | 0
COc1cc(Nc2ncc3c(n2)-c2ccc(Cl)cc2C(c2c(F)cccc2OC)=NC3)ccc1C(=O)O [Alisertib] | 0
CN1CC[C@H](c2c(O)cc(O)c3c(=O)cc(-c4ccccc4Cl)oc23)[C@H](O)C1 [Alvocidib] | 12.8
CC[C@]1(O)C[C@@H]2CN(CCc3c([nH]c4ccccc34)[C@@](C(=O)OC)(c3cc4c(cc3OC)N(C)[C@H]3[C@@](O)(C(=O)OC)[C@H](OC(C)=O)[C@]5(CC)C=CCN6CC[C@]43[C@@H]65)C2)C1 [Vinblastine] | 13.1
COc1cccc2c1C(=O)c1c(O)c3c(c(O)c1C2=O)C[C@@](O)(C(=O)CO)C[C@@H]3O[C@H]1C[C@H](N)[C@H](O)[C@H](C)O1 [Doxorubicin] | 2.56
COc1cccc2cc(-c3nc([C@H]4CC[C@H](C(=O)O)CC4)n4ncnc(N)c34)[nH]c12 [OSI-027] | 8
Nc1ccn([C@@H]2O[C@H](CO)[C@@H](O)[C@@H]2O)c(=O)n1 [Cytarabine] | 0

* * *

- Tested on: MFM-223
- experiment_summary: normalised response (% of control), CellTiter-Glo; higher = more viable cells (100 = DMSO, 0 = benzethonium chloride kill control)
- test_conditions: incubation time: 72 h
assay_endpoint: normalised response (%)

molecule | measurement_target | obs_value
O=C(c1ccc(C(=O)N2CCC(N3CCCC3)CC2)c(Nc2ccccc2)c1)N1CCC(N2CCCC2)CC1 [UNC1215] (30000 nM) | MFM-223 | 95.1
CC[C@]1(O)C[C@@H]2CN(CCc3c([nH]c4ccccc34)[C@@](C(=O)OC)(c3cc4c(cc3OC)N(C)[C@H]3[C@@](O)(C(=O)OC)[C@H](OC(C)=O)[C@]5(CC)C=CCN6CC[C@]43[C@@H]65)C2)C1 [Vinblastine] (1000 nM) | MFM-223 | 44.6
CN(C)C/C=C/C(=O)Nc1cc2c(Nc3ccc(F)c(Cl)c3)ncnc2cc1O[C@H]1CCOC1 [Afatinib] (1000 nM) | MFM-223 | 93
C=CCNC1=C2C[C@@H](C)C[C@H](OC)[C@H](O)[C@@H](C)/C=C(\C)[C@H](OC(N)=O)[C@@H](OC)/C=C\C=C(/C)C(=O)NC(=CC1=O)C2=O [Tanespimycin] (10000 nM) | MFM-223 | 38.1
